experiment: Tendency to form solvates (acetone); format: physicochemical; conditions: generally acetone as the solvent
metric_name: Is there low tendency to form solvates?

                                   compound  result
0  CCS(=O)(=O)O.Cc1cc2c(s1)Nc1ccccc1N=C2N1CCN(C)CC1 [Monoesylate, Olanzapine Esylate]     Yes
1  Cc1cc2c(s1)Nc1ccccc1N=C2N1CCN(C)CC1.O=C(O)CC(=O)O [Hydrogenmalonate, Olanzapine Hydrogenmalonate]     Yes
2  Cc1cc2c(s1)Nc1ccccc1N=C2N1CCN(C)CC1.Cc1cc2c(s1)Nc1ccccc1N=C2N1CCN(C)CC1.O=S(=O)(O)O [Hemisulfate, reference compound]      No
3  Cc1cc2c(s1)Nc1ccccc1N=C2N1CCN(C)CC1.O=S(=O)(O)O [Monosulfate, Olanzapine Hydrogensulfate]      No
